# reported log10 Kb; entries follow
# tgt: Neuropeptide Y receptor type 1 (Homo sapiens)
# test-description: Antagonist activity at NPY1 receptor in human HEL cells assessed as inhibition of NPY-induced calcium mobilization by Fura-2 assay
# Assay type: functional, cell-based
All values: base-10 log of Kb in nM.

Here N=C(NCCC[C@@H](NC(=O)C(c1ccccc1)c1ccccc1)C(=O)NCc1ccc(O)cc1)NC(=O)CCCn1cc(CN)nn1 was tested on Neuropeptide Y receptor type 1 (Homo sapiens), and its log10 Kb came to 1.15

Here N=C(NCCC[C@@H](NC(=O)C(c1ccccc1)c1ccccc1)C(=O)NCc1ccc(O)cc1)NC(=O)CCCCCCC(=O)NCCC(=O)O was tested on Neuropeptide Y receptor type 1 (Homo sapiens), and its log10 Kb came to 2.65

Here COC(=O)CCNC(=O)CCCCCCC(=O)NC(=N)NCCC[C@@H](NC(=O)C(c1ccccc1)c1ccccc1)C(=O)NCc1ccc(O)cc1 was tested on Neuropeptide Y receptor type 1 (Homo sapiens), and its log10 Kb came to 2.23

Here COC(=O)CCCCCCC(=O)NC(=N)NCCC[C@@H](NC(=O)C(c1ccccc1)c1ccccc1)C(=O)NCc1ccc(O)cc1 was tested on Neuropeptide Y receptor type 1 (Homo sapiens), and its log10 Kb came to -1.22

Here N=C(N)NCCCCCC(=O)NC(=N)NCCC[C@@H](NC(=O)C(c1ccccc1)c1ccccc1)C(=O)NCc1ccc(O)cc1 was tested on Neuropeptide Y receptor type 1 (Homo sapiens), and its log10 Kb came to 1.26

Here CCCCCCCCCCCCC#CC#CCCCCCCCCC(=O)NC(=N)NCCC[C@@H](NC(=O)C(c1ccccc1)c1ccccc1)C(=O)NCc1ccc(O)cc1 was tested on Neuropeptide Y receptor type 1 (Homo sapiens), and its log10 Kb came to 2.15

Here CCCCCCCCCCCCCCCC(=O)NC(=N)NCCC[C@@H](NC(=O)C(c1ccccc1)c1ccccc1)C(=O)NCc1ccc(O)cc1 was tested on Neuropeptide Y receptor type 1 (Homo sapiens), and its log10 Kb came to 2.23

Here N=C(NCCC[C@@H](NC(=O)C(c1ccccc1)c1ccccc1)C(=O)NCc1ccc(O)cc1)NC(=O)CCCn1cc(CO)nn1 was tested on Neuropeptide Y receptor type 1 (Homo sapiens), and its log10 Kb came to -0.40

Here N=C(NCCC[C@@H](NC(=O)C(c1ccccc1)c1ccccc1)C(=O)NCc1ccc(O)cc1)NC(=O)CCCCCCC(=O)NCCC(=O)OCc1ccccc1 was tested on Neuropeptide Y receptor type 1 (Homo sapiens), and its log10 Kb came to 0.04

Here CC(=O)OC[C@@H](OC(C)=O)[C@@H](OC(C)=O)[C@H](OC(C)=O)[C@@H](OC(C)=O)C(=O)NC(=N)NCCC[C@@H](NC(=O)C(c1ccccc1)c1ccccc1)C(=O)NCc1ccc(O)cc1 was tested on Neuropeptide Y receptor type 1 (Homo sapiens), and its log10 Kb came to 2.04

Next:
Here N=C(NCCC[C@@H](NC(=O)C(c1ccccc1)c1ccccc1)C(=O)NCc1ccc(O)cc1)NC(=O)CCCCCCC(=O)NCCN was tested on Neuropeptide Y receptor type 1 (Homo sapiens), and its log10 Kb came to 2.36

Here N=C(NCCC[C@@H](NC(=O)C(c1ccccc1)c1ccccc1)C(=O)NCc1ccc(O)cc1)NC(=O)CCC(=O)OC[C@H]1O[C@@H](O)[C@H](O)[C@@H](O)[C@H]1O was tested on Neuropeptide Y receptor type 1 (Homo sapiens), and its log10 Kb came to 2.71
